Provide the recorded IC50 for the entries that follow.
System: A549
Protocol Notes: Cytotoxicity against human A549 cells by MTT assay
Format: functional, cell-based
// units = µg/mL; emit number, no label

What value of IC50 has been recorded for this entry: COC1=CC(=O)c2c(O)cccc2C1=O
0.08

What value of IC50 has been recorded for this entry: COC(=O)c1cc(O[C@H]2O[C@@H](CO)[C@H](O)[C@@H](O)[C@@H]2O)c2c(O)cccc2c1O
7.79

---

Provide the recorded IC50 for the entries that follow.
Tested on: HT-29
Protocol Notes: Cytotoxicity against human HT-29 cells by MTT assay
Format: functional, cell-based
// units = µg/mL; emit number, no label

Provide value of IC50 for this record tested with HT-29: COC1=CC(=O)c2c(O)cccc2C1=O
2.63

Provide value of IC50 for this record tested with HT-29: COC(=O)C(O)(c1cc2c(c3oc([C@]4(C)C[C@@H]4C)cc(=O)c13)C(=O)c1c(ccc([C@H]3C[C@](C)(N(C)C)[C@H](O[C@@H]4C[C@H](OC)[C@H](O)[C@@H](C)O4)[C@H](C)O3)c1O)C2=O)[C@H]1O[C@H](C)[C@@H](O)[C@@H](OC)[C@@H]1O (stereo not given in full)
3.98

Provide value of IC50 for this record tested with HT-29: COC(=O)c1cc(O[C@H]2O[C@@H](CO)[C@H](O)[C@@H](O)[C@@H]2O)c2c(O)cccc2c1O
8.06
